Test system: RS4;11 cells
assay_details: RS4;11 cell viability assay (CellTiter Glo)
Format: cell-based, human
condition_info: Homo sapiens, RS4-11, 48 h, 50,000 cells per well, 10% human serum, 48 hours; read-out: RS4; 11 EC50 Values
# Lookup of reported EC50 keyed by entry

- compound: "CN(C)CC(=O)N1CCO[C@@H](COc2ncc(S(=O)(=O)NC(=O)c3ccc(N4CCN(CC5=C(c6ccc(Cl)cc6)CC(C)(C)CC5)CC4)cc3Oc3cnc4[nH]ccc4c3)cc2Cl)C1 [Example 247]"
  study_system: "RS4;11 cells"
  EC50 [nM]: 93
- compound: "CC1(C)CCC(CN2CCN(c3ccc(C(=O)NS(=O)(=O)c4ccc(NCC5CCN(C(CF)CF)CC5)c([N+](=O)[O-])c4)c(Oc4cnc5[nH]ccc5c4)c3)CC2)=C(c2ccc(Cl)cc2)C1 [Example 172]"
  study_system: "RS4;11 cells"
  EC50 [nM]: 20.5
- compound: "CC1(C)CCC(CN2CCN(c3ccc(C(=O)NS(=O)(=O)c4cnc(OCC5CCC(N(C6CC6)C6COC6)CC5)c(Cl)c4)c(Oc4cnc5[nH]ccc5c4)c3)CC2)=C(c2ccc(Cl)cc2)C1 (stereo not drawn) [Example 329]"
  study_system: "RS4;11 cells"
  EC50 [nM]: 424

###

Test system: RS4;11 cells
assay_details: RS4;11 cell viability assay (CellTiter Glo)
Type: cell-based, human
condition_info: Homo sapiens, RS4-11, 48 h, 50,000 cells per well, 10% human serum, 48 hours; read-out: RS4; 11 EC50 Values
pEC50: −log10 of the molar value.

- compound: "O=C(NS(=O)(=O)c1ccc(OCC2(F)CCOCC2)c(Cl)c1)c1ccc(N2CCN(CC3=C(c4ccc(Cl)cc4)CCC4(CCN(C5COC5)CC4)C3)CC2)cc1Oc1cnc2[nH]ccc2c1 [Example 325]"
  qualifier: "="
  pEC50: 7.91
- compound: "CC1(C)CCC(CN2CCN(c3ccc(C(=O)NS(=O)(=O)c4ccc(NCC5CCC(F)(F)CC5)c([N+](=O)[O-])c4)c(Oc4cnc5[nH]ccc5c4)c3)CC2)=C(c2ccc(Cl)cc2)C1 [Example 239]"
  qualifier: "="
  pEC50: 7.63
- compound: "CO[C@H]1CC[C@@H](CNc2ccc(S(=O)(=O)NC(=O)c3ccc(N4CCN(CC5=C(c6ccc(Cl)cc6)CC(C)(C)OC5)CC4)cc3Oc3cnc4[nH]ccc4c3)cc2[N+](=O)[O-])CC1 [Example 72]"
  qualifier: "="
  pEC50: 8.12
- compound: "CO[C@H]1CC[C@@H](COc2ncc(S(=O)(=O)NC(=O)c3ccc(N4CCN(CC5=C(c6ccc(Cl)cc6)CC(C)(C)CC5)CC4)cc3Oc3cnc4[nH]ccc4c3)cc2C(F)(F)F)CC1 [Example 301]"
  qualifier: "<"
  pEC50: 6.00
- compound: "COCC(=O)N1CCC(COc2ccc(S(=O)(=O)NC(=O)c3ccc(N4CCN(CC5=C(c6ccc(Cl)cc6)CC(C)(C)CC5)CC4)cc3Oc3cnc4[nH]ccc4c3)cc2Cl)CC1 [Example 294]"
  qualifier: "="
  pEC50: 6.90

###

Tested on: RS4;11 cells
assay_details: RS4;11 cell viability assay (CellTiter Glo);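 also: acute lymphoblastic leukemia line RS4,11, EC50 derived from percentage of viable cells after treatment relative to untreated controls, cell killing taken as a measure of Bcl-2 inhibition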
Format: cell-based, human
condition_info: Homo sapiens, RS4-11, 48 h, 50,000 cells per well, 10% human serum, 48 hours; read-out: RS4; 11 EC50 Values
We begin with a simple list: items and their reported EC50.

- molecule: "CC1(C)CCC(CN2CCN(c3ccc(C(=O)NS(=O)(=O)c4cc(Cl)c(NCC5CCOCC5)c(C#N)c4)c(Oc4cnc5[nH]ccc5c4)c3)CC2)=C(c2ccc(Cl)cc2)C1"
  unit_tag: "nM"
  EC50: 200
- molecule: "CC1(C)CCC(CC2CCN(c3ccc(C(=O)NS(=O)(=O)c4ccc(NCC5CCOCC5)c([N+](=O)[O-])c4)c(Oc4cnc5[nH]ccc5c4)c3)CC2)=C(c2ccc(Cl)cc2)C1"
  unit_tag: "nM"
  EC50: 210
- molecule: "CC1(C)CCC(CN2CCN(c3ccc(C(=O)NS(=O)(=O)c4ccc(NC5CCN([C@H]6CCOC[C@H]6F)CC5)c([N+](=O)[O-])c4)c(Oc4cnc5[nH]ccc5c4)c3)CC2)=C(c2ccc(Cl)cc2)C1 (relative stereo)"
  unit_tag: "nM"
  EC50: 11.8
- molecule: "CC1(C)CCC(CN2CCN(c3ccc(C(=O)NS(=O)(=O)c4ccc(OCC5CCN(C6COC6)CC5)c([N+](=O)[O-])c4)c(Oc4cnc5[nH]ccc5c4)c3)CC2)=C(c2ccc(Cl)cc2)C1"
  unit_tag: "nM"
  EC50: 6.91
- molecule: "CC1(C)CCC(CN2CCN(c3ccc(C(=O)NS(=O)(=O)c4cnc(OCC5COCCO5)c(C#N)c4)c(Oc4cnc5[nH]ccc5c4)c3)CC2)=C(c2ccc(Cl)cc2)C1 (stereo not shown)"
  unit_tag: "nM"
  EC50: 352
- molecule: "CN1CCC(Nc2ccc(S(=O)(=O)NC(=O)c3ccc(N4CCN(CC5=C(c6ccc(Cl)cc6)CC(C)(C)CC5)CC4)cc3Oc3cccc4[nH]c5ccccc5c34)cc2[N+](=O)[O-])CC1"
  unit_tag: "nM"
  EC50: 192
- molecule: "CC1(C)CCC(CN2CCN(c3ccc(C(=O)NS(=O)(=O)c4cnc(NCC5(F)CCOCC5)c(Cl)c4)c(Oc4cnc5[nH]ccc5c4)c3)CC2)=C(c2ccc(Cl)cc2)C1"
  unit_tag: "nM"
  EC50: 223
- molecule: "COCC1CCC(CNc2ccc(S(=O)(=O)NC(=O)c3ccc(N4CCN(CC5=C(c6ccc(Cl)cc6)CC(C)(C)CC5)CC4)cc3Oc3cnc4[nH]ccc4c3)cc2[N+](=O)[O-])CC1 (stereo not shown)"
  unit_tag: "nM"
  EC50: 15.5
- molecule: "CC1(C)CCC(c2ccc(Cl)cc2)=C(CN2CCN(c3ccc(C(=O)NS(=O)(=O)c4ccc(NCC5CCOCC5)c([N+](=O)[O-])c4)c(Oc4cnc5[nH]ccc5c4)c3)CC2)C1"
  unit_tag: "nM"
  EC50: 15.1
- molecule: "CC1(C)CCC(CN2CCN(c3ccc(C(=O)NS(=O)(=O)c4cnc(OCCC5CCOCC5)c(C#N)c4)c(Oc4cnc5[nH]ccc5c4)c3)CC2)=C(c2ccc(Cl)cc2)C1"
  unit_tag: "nM"
  EC50: 794
